Reference source for all entries: patent US20040121965A1

test system: KB-3-1; assay: Cell survival assay (SRB), KB-3-1; assay type: cell-based, human; settings: Homo sapiens, KB 3-1

compound | IC50
CN[C@H](C(=O)N[C@H](C(=O)N(C)[C@H](/C=C(\C)C(=O)O)C(C)C)C(C)(C)C)C(C)(C)c1ccccc1 [Example 129] | ~1 nM

----------
test system: Panc1; experiment: Cell survival assay (SRB), Panc1; format: cell-based; conditions: Homo sapiens, PANC-1, 72 h

molecule | unitsText | IC50
CN[C@H](C(=O)N[C@H](C(=O)N(C)[C@H](/C=C(\C)C(=O)O)C(C)C)C(C)(C)C)C(C)(C)c1ccccc1 [Example 129] | nM | 2.9

----------
test system: S1; assay: Cell survival assay (SRB), S1; type: cell-based; conditions: Homo sapiens; S1 parental; Table 5; read-out: S1 IC50, nM (N)
Quick reference: IC50 of the listed items.

compound | IC50 (nM)
O=C1c2c(O)ccc(O)c2C(=O)c2c(NCCNCCO)ccc(NCCNCCO)c21 | 31
COc1cccc2c1C(=O)c1c(O)c3c(c(O)c1C2=O)C[C@@](O)(C(=O)CO)C[C@@H]3O[C@H]1C[C@H](N)[C@H](O)[C@H](C)O1 | 221
CC[C@]1(O)C[C@@H]2CN(CCc3c([nH]c4ccccc34)[C@@](C(=O)OC)(c3cc4c(cc3OC)N(C)[C@H]3[C@@](O)(C(=O)OC)[C@H](OC(C)=O)[C@]5(CC)C=CCN6CC[C@]43[C@@H]65)C2)C1 | 6.5
CC(=O)O[C@H]1C(=O)[C@@]2(C)[C@H]([C@H](OC(=O)c3ccccc3)[C@]3(O)C[C@H](OC(=O)[C@H](O)[C@@H](NC(=O)c4ccccc4)c4ccccc4)C(C)=C1C3(C)C)[C@]1(OC(C)=O)CO[C@@H]1C[C@@H]2O [paclitaxel, reference compound] | 92

----------
system: S1-M1-3.2 (MXR); test: Cell survival assay, S1-M1-3.2 (MXR); assay type: cell-based, human; conditions: Homo sapiens, read-out: S1-M1-3.2 (MXR) IC50, nM (N)

smilesRepr | IC50, nM
CN[C@H](C(=O)N[C@H](C(=O)N(C)[C@H](/C=C(\C)C(=O)O)C(C)C)C(C)(C)C)C(C)(C)c1ccccc1 | 4.8

----------
system: KB-V1 (MDR1++); assay: Cell survival assay (SRB), KB-V1 (MDR1++)
Give Criterion met when the value for Ratio KBV1/KB is at least 70. Give Criterion not met when it is less.

compound | category
CN[C@H](C(=O)N[C@H](C(=O)N(C)[C@H](/C=C(\C)C(=O)O)C(C)C)C(C)(C)C)C(C)(C)c1ccc(OC)cc1OC | Criterion met
CN[C@@H](C(=O)N[C@H](C(=O)N(C)[C@H](/C=C(\C)C(=O)O)C(C)C)C(C)(C)C)C(C)(C)c1cc(F)cc(F)c1 | Criterion not met
CCOC(=O)/C(C)=C/[C@H](C(C)C)N(C)C(=O)[C@@H](NC(=O)[C@@H](NC)C(C)(C)c1ccc(C(C)(C)C)cc1)C(C)(C)C | Criterion met
CN[C@H](C(=O)N[C@H](C(=O)N(C)[C@H](/C=C(\C)C(=O)N[C@@H](CCSC)C(=O)O)C(C)C)C(C)(C)C)C(C)(C)c1ccccc1 | Criterion not met
CN[C@H](C(=O)N[C@H](C(=O)N(C)[C@H](C[C@@H](C)C(=O)O)C(C)C)C(C)(C)C)C(C)(C)c1ccccc1 | Criterion met
CN[C@@H](C(=O)N[C@H](C(=O)N(C)[C@H](/C=C(\C)C(=O)O)C(C)C)C(C)(C)C)C(C)(C)c1ccc(OC(C)C)cc1 | Criterion not met
CCOC(=O)/C(C)=C/[C@H](C(C)C)N(C)C(=O)[C@@H](NC(=O)[C@@H](NC)C(C)(C)c1ccccc1)C(C)(C)C | Criterion not met
CN[C@H](C(=O)N[C@H](C(=O)N(C)[C@H](/C=C/C(=O)O)C(C)C)C(C)(C)C)C(C)(C)c1ccccc1 | Criterion not met
CCN[C@H](C(=O)N[C@H](C(=O)N(C)[C@H](/C=C(\C)C(=O)O)C(C)C)C(C)(C)C)C(C)(C)c1ccccc1 [Example 151] | Criterion not met
C/C(=C\[C@H](C(C)C)N(C)C(=O)[C@@H](NC(=O)[C@@H](N)Cc1cccc2ccccc12)C(C)(C)C)C(=O)O | Criterion not met
CN[C@H](C(=O)N[C@H](C(=O)N(C)[C@H](/C=C(\C)C(=O)O)C(C)C)C(C)(C)C)C(C)(C)c1cc(C)cc(C)c1 | Criterion met
CCC[C@H](NC(=O)[C@@H](NC)C(C)(C)c1ccccc1)C(=O)N(C)[C@H](/C=C(\C)C(=O)O)C(C)C.O=C(O)C(F)(F)F | Criterion not met

----------
tested on: KB-V1 (MDR1++); conditions: human
pIC50: −log10 of the molar value.

smilesRepr | pIC50
CN[C@H](C(=O)N[C@H](C(=O)N(C)[C@H](/C=C(\C)C(=O)O)C(C)C)C(C)(C)C)C(C)(C)c1ccccc1 | 6.06

----------
Quick reference: Ratio KBV1/KB of the listed items.
system: KB-V1 (MDR1++); assay: Cell survival assay (SRB), KB-V1 (MDR1++)
parameterMeasured: Ratio KBV1/KB

compound | recordedNumber
CN[C@@H](C(=O)N[C@H](C(=O)N(C)[C@H](/C=C(\C)C(=O)O)C(C)C)C(C)(C)C)C(C)(C)c1ccc(/C=C/c2ccccc2)cc1 | 53.4
CN[C@H](C(=O)N[C@H](C(=O)N(C)[C@H](/C=C(\C)C(=O)O)C(C)C)C(C)(C)C)C(C)(C)SCc1ccc(OC)cc1 | 36.5
CN[C@H](C(=O)N[C@H](C(=O)N(C)[C@H](/C=C(\C)C(=O)O)C(C)C)[C@H](C)O)C(C)(C)c1ccccc1 | 9.7
CN[C@H](C(=O)N[C@H](C(=O)N(C)[C@H](/C=C(\C)C(=O)O)C(C)C)C(C)(C)C)C(C)(C)c1ccc(OC(C)C)cc1 | 47.2
CCOC(=O)/C(C)=C/[C@H](C(C)C)N(C)C(=O)[C@@H](NC(=O)[C@@H](NC)C(C)(C)c1ccc(C)cc1)C(C)(C)C [Example 10a] | 52.4
CN[C@H](C(=O)N[C@H](C(=O)N(C)[C@H](/C=C(\C)C(=O)O)C(C)C)[C@H](C)OC)C(C)(C)c1ccccc1 | 3.4

----------
Quick reference: IC50 of the listed items.
test system: KB-3-1; test: Cell survival assay (SRB), KB-3-1; assay type: cell-based, human; settings: KB-3-1 cells (paclitaxel-sensitive parent); read-out: In vitro IC50 (nM) KB-3-1
parameterMeasured: IC50 (nM)

compound | parameterMeasured | recordedNumber
CCOC(=O)/C(C)=C/[C@H](C(C)C)N(C)C(=O)[C@@H](NC(=O)[C@H](NC)C(C)(C)c1ccc(C)c(C)c1)C(C)(C)C [Example 13b] | IC50 | 295
CN[C@H](C(=O)N[C@@H](CCC(=O)O)C(=O)N(C)[C@H](/C=C(\C)C(=O)O)C(C)C)C(C)(C)c1ccccc1 [Example 139] | IC50 | 503
CCN(C(=O)[C@@H](NC(=O)[C@@H](NC)C(C)(C)c1ccccc1)C(C)C)[C@H](/C=C(\C)C(=O)O)C(C)C.O=C(O)C(F)(F)F [Example 95] | IC50 | 38.6
CN[C@@H](C(=O)N[C@H](C(=O)N(C)[C@H](/C=C(\C)C(=O)O)C(C)C)C(C)(C)C)C(C)(C)c1ccc(OC(C)C)cc1 [Example 69] | IC50 | 55

----------
test system: KB-3-1; test: Cell survival assay (SRB), KB-3-1; format: cell-based, human; conditions: Homo sapiens; KB-3-1 parental; Table 3; read-out: KB-3-1 IC50, nM (N)
parameterMeasured: IC50 (nM)

molecule | recordedNumber
O=C1c2c(O)ccc(O)c2C(=O)c2c(NCCNCCO)ccc(NCCNCCO)c21 | 10.3
CC(=O)O[C@@]12CO[C@@H]1C[C@H](O)[C@@]1(C)C(=O)[C@H](O)C3=C(C)[C@@H](OC(=O)[C@H](O)[C@@H](NC(=O)OC(C)(C)C)c4ccccc4)C[C@@](O)([C@@H](OC(=O)c4ccccc4)[C@H]21)C3(C)C [docetaxel, reference compound] | 0.55
COc1cccc2c1C(=O)c1c(O)c3c(c(O)c1C2=O)C[C@@](O)(C(=O)CO)C[C@@H]3O[C@H]1C[C@H](N)[C@H](O)[C@H](C)O1 | 43.3
CCC1=C[C@@H]2CN(C1)Cc1c([nH]c3ccccc13)[C@@](C(=O)OC)(c1cc3c(cc1OC)N(C)[C@H]1[C@@](O)(C(=O)OC)[C@H](OC(C)=O)[C@]4(CC)C=CCN5CC[C@]31[C@@H]54)C2 [vinorelbine, reference compound] | 3.5
